Reference for the values: the Immune Epitope Database (IEDB)

Target: HLA-B*48:01
Test: IEDB peptide-MHC binding, purified MHC/direct/fluorescence; filed as Kd, often an IC50 or EC50 that approximates it; bounds were set here for any values at or beyond the usual limits of such assays
Conditions: source organism: Yersinia enterocolitica
MEASURED ENDPOINT: Kd

Quote Kd reported for YRLVSAVEK please.
≥ 20 µM

----------
Target: HLA-B*35:01
Assay: IEDB peptide-MHC binding, purified MHC/competitive/fluorescence; filed as Kd, often an IC50 or EC50 that approximates it; bounds were set here for any values at or beyond the usual limits of such assays
Conditions: source organism: Escherichia coli O139:H28 str. E24377A
MEASURED ENDPOINT: pKd
Notebook: values listed as pKd are -log10 of the concentration (mol/L).

Quote pKd reported for LANWCLLNY please.
8.34

----------
Biological target: HLA-B*40:01
Test: IEDB peptide-MHC binding, purified MHC/competitive/radioactivity; filed as Kd, often an IC50 or EC50 that approximates it; bounds were set here for any values at or beyond the usual limits of such assays
Conditions: source organism: Dengue virus 1 Brazil/97-11/1997
Kd vs 60 nM: less than gives condition met; not less than gives condition not met.

Worked cases, answers included:
> print(dat)
   residue.sequence  system.name           category
1        IEEGRTLRVL  HLA-B*40:01  condition not met
2         VEEQDANFV  HLA-B*40:01  condition not met
3        HEWCCRSCTL  HLA-B*40:01      condition met
4        IENTTANISL  HLA-B*40:01      condition met

Okay, now this sequence:
Hello, I'm reviewing records and need to know if Kd of GEVDSFSLGI is below 60 nM. Could you check?
condition met

----------
Target: HLA-A*68:02
Assay: IEDB peptide-MHC binding, purified MHC/competitive/radioactivity; filed as Kd, often an IC50 or EC50 that approximates it; bounds were set here for any values at or beyond the usual limits of such assays
Details: source organism: Homo sapiens
MEASURED ENDPOINT: pKd
Notebook: values listed as pKd are -log10 of the concentration (mol/L).

Quote pKd reported for WLVLRINKAL please.
5.35

----------
Target: HLA-A*69:01
Experiment: IEDB peptide-MHC binding, purified MHC/direct/fluorescence; filed as Kd, often an IC50 or EC50 that approximates it; bounds were set here for any values at or beyond the usual limits of such assays
Details: source organism: Camelpox virus M-96
MEASURED ENDPOINT: pKd
Notebook: values listed as pKd are -log10 of the concentration (mol/L).

Quote pKd reported for LEYGANYFL please.
5.80

----------
Target: HLA-B*07:02
Test: IEDB peptide-MHC binding, purified MHC/competitive/fluorescence; filed as Kd, often an IC50 or EC50 that approximates it; bounds were set here for any values at or beyond the usual limits of such assays
Conditions: source organism: Escherichia coli
MEASURED ENDPOINT: Kd

Quote Kd reported for RAAPLMQSL please.
12 nM

----------
Target: HLA-B*27:05
Test: IEDB peptide-MHC binding, purified MHC/direct/fluorescence; filed as Kd, often an IC50 or EC50 that approximates it; bounds were set here for any values at or beyond the usual limits of such assays
Settings: source organism: Homo sapiens
MEASURED ENDPOINT: Kd (µM)
Field format: number, assumed µM, no unit text.

Quote Kd reported for KSDPIMLLK please.
7.47

----------
List of Kd values.
Target: HLA-A*03:01
Test: IEDB peptide-MHC binding, purified MHC/competitive/radioactivity; filed as Kd, often an IC50 or EC50 that approximates it; bounds were set here for any values at or beyond the usual limits of such assays
Details: source organism: Lassa virus Josiah
Field format: number, assumed nM, no unit text.

A selection of reference data follows.
> print(dat)
   residue.sequence  unit.abbrev  measured.result
1        ALMSIISTFH           nM              617
2         KTWMDIEGR           nM             8460

Moving on to another sequence below.
Quote Kd reported for RTRDIYISRR please.
393

----------
Target: HLA-B*40:01
Assay: IEDB peptide-MHC binding, purified MHC/direct/fluorescence; filed as Kd, often an IC50 or EC50 that approximates it; bounds were set here for any values at or beyond the usual limits of such assays
Conditions: source organism: Giardia intestinalis
MEASURED ENDPOINT: Kd (nM)
Field format: number, assumed nM, no unit text.

Quote Kd reported for LEKWNLGII please.
599

----------
Target: HLA-B*15:17
Test: IEDB peptide-MHC binding, purified MHC/competitive/fluorescence; filed as Kd, often an IC50 or EC50 that approximates it; bounds were set here for any values at or beyond the usual limits of such assays
Conditions: source organism: Vaccinia virus Copenhagen
pKd: −log10 of the molar value.
MEASURED ENDPOINT: pKd

Quote pKd reported for LEYGANYFL please.
≤ 4.70

----------
Target: HLA-B*07:02
Assay: IEDB peptide-MHC binding, purified MHC/direct/fluorescence; filed as Kd, often an IC50 or EC50 that approximates it; bounds were set here for any values at or beyond the usual limits of such assays
Conditions: source organism: Entamoeba histolytica HM-1:IMSS
MEASURED ENDPOINT: Kd

// fetch Kd; item: ETMKPAAMV ; system: HLA-B*07:02
≥ 20 µM

----------
Target: HLA-A*26:01
Test: IEDB peptide-MHC binding, purified MHC/competitive/fluorescence; filed as Kd, often an IC50 or EC50 that approximates it; bounds were set here for any values at or beyond the usual limits of such assays
Details: source organism: Orthohantavirus tulaense
pKd: −log10 of the molar value.
MEASURED ENDPOINT: pKd

Quote pKd reported for SLMSRVVYK please.
≤ 4.70

----------
Target: HLA-A*26:01
Experiment: IEDB peptide-MHC binding, purified MHC/competitive/fluorescence; filed as Kd, often an IC50 or EC50 that approximates it; bounds were set here for any values at or beyond the usual limits of such assays
Conditions: source organism: Bacillus anthracis str. A0488
MEASURED ENDPOINT: Kd

Quote Kd reported for KQGDVFYTA please.
≥ 20 µM

----------
Target: HLA-B*39:01
Assay: IEDB peptide-MHC binding, purified MHC/competitive/fluorescence; filed as Kd, often an IC50 or EC50 that approximates it; bounds were set here for any values at or beyond the usual limits of such assays
Settings: source organism: Yersinia pestis Nepal516
MEASURED ENDPOINT: pKd
Notebook: values listed as pKd are -log10 of the concentration (mol/L).

> print(dat)
   residue.sequence  system.name  measured.result
1         FPVAMLSCL  HLA-B*39:01             7.73

Moving on to another sequence below.
Quote pKd reported for TQFGVPFVL please.
9.52

----------
Target: HLA-A*02:03
Assay: IEDB peptide-MHC binding, purified MHC/direct/fluorescence; filed as Kd, often an IC50 or EC50 that approximates it; bounds were set here for any values at or beyond the usual limits of such assays
Conditions: source organism: Entamoeba histolytica HM-1:IMSS
MEASURED ENDPOINT: Kd

Quote Kd reported for STYQFSLMQ please.
≥ 20 µM

----------
Molecular target: HLA-B*40:01
Assay: IEDB peptide-MHC binding, purified MHC/competitive/radioactivity; filed as Kd, often an IC50 or EC50 that approximates it; bounds were set here for any values at or beyond the usual limits of such assays
Conditions: source organism: Lassa virus Josiah
MEASURED ENDPOINT: Kd

Quote Kd reported for SEGKDTPGGY please.
≥ 25.4 µM

----------
Target: HLA-B*51:01
Test: IEDB peptide-MHC binding, purified MHC/competitive/fluorescence; filed as Kd, often an IC50 or EC50 that approximates it; bounds were set here for any values at or beyond the usual limits of such assays
Conditions: source organism: Mycobacterium tuberculosis variant bovis BCG str. Pasteur 1173P2
MEASURED ENDPOINT: Kd

Quote Kd reported for MTMITPPTF please.
≥ 20 µM

----------
Molecular target: HLA-A*02:01
Test: IEDB peptide-MHC binding, purified MHC/direct/fluorescence; filed as Kd, often an IC50 or EC50 that approximates it; bounds were set here for any values at or beyond the usual limits of such assays
Details: source organism: Shigella dysenteriae
MEASURED ENDPOINT: Kd

Quote Kd reported for TTFPVNGGY please.
≥ 20 µM

----------
Biological target: HLA-A*30:01
Experiment: IEDB peptide-MHC binding, purified MHC/direct/fluorescence; filed as Kd, often an IC50 or EC50 that approximates it; bounds were set here for any values at or beyond the usual limits of such assays
Conditions: source organism: Bacillus cereus 03BB108
MEASURED ENDPOINT: Kd

Quote Kd reported for WFREDRSPV please.
≥ 20 µM

----------
Molecular target: HLA-B*51:01
Assay: IEDB peptide-MHC binding, purified MHC/competitive/fluorescence; filed as Kd, often an IC50 or EC50 that approximates it; bounds were set here for any values at or beyond the usual limits of such assays
Settings: source organism: Yersinia pestis Nepal516
List of Kd values.

A selection of reference data follows.
> print(dat)
   residue.sequence  measured.result
1         SMLCWLGMT          ≥ 20 µM
2         FPVAMLSCL         0.186 µM

Moving on to another sequence below.
Quote Kd reported for LPDTGSWGI please.
≥ 20 µM
